assay: self-splicing fitness, log relative to wild type (ln ratio); higher = more splicing; Tetrahymena group I intron in knt gene, E. coli kanamycin selection, DiMSum; sequences stand for … in CUCUCU…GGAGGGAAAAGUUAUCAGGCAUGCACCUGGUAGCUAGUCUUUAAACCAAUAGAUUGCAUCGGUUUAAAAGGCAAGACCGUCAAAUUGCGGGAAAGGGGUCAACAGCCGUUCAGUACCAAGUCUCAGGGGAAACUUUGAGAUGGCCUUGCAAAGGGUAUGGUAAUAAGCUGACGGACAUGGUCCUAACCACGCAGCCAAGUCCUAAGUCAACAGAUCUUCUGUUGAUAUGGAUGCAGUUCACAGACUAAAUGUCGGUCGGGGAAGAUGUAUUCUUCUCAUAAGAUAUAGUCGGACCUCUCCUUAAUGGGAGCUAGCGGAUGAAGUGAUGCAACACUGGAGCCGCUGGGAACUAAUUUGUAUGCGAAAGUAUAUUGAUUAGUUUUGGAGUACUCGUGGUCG; details: 30 °C;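 further: selection with 25 µg/mL kanamycin versus none on LB agar overnight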
Use Y when the recorded self-splicing fitness (ln) is no lower than -3; use N when it is lower.

Evaluate `UCAAAGCAAUAUUACGUGUC` : self-splicing fitness (ln) at minimum -3?
N

Similarly, `UCUAAGCAAUAUUACGACCA` ?
Y

// repeat for `UCGGAGCAAUAUUACGGCGA` and report
Y

Next entry: `UAUGAGCAAUAUUACGGCUA`
Y

Same question for `AAAUAGCAAUAUUACGGGGA` please.
N

Next: `CCGGAGCAAUAUUACGUUGC`
Y

Could you do the same for `UGACAGCAAUAUUACGAGCC` , please?
N

// next record `ACCCAGCAAUAUUACGGACA`
Y

Same lookup for `AGGUAGCAAUAUUACGGUUA` , please.
Y

Field entry: `AGAGAGCAAUAUUACGGUGG`
Y

Here is the next sequence: `UACCAGCAAUAUUACGAGGG`
N

Next up: `UGGCAGCAAUAUUACGCUCA`
Y

Another sequence to check: `CGUCAGCAAUAUUACGGAUG`
N

Ok, now `CGGCAGCAAUAUUACGUUUG`
Y

---

assay: self-splicing fitness, log relative to wild type (ln ratio); higher = more splicing; Tetrahymena group I intron in knt gene, E. coli kanamycin selection, DiMSum; sequences stand for … in CUCUCU…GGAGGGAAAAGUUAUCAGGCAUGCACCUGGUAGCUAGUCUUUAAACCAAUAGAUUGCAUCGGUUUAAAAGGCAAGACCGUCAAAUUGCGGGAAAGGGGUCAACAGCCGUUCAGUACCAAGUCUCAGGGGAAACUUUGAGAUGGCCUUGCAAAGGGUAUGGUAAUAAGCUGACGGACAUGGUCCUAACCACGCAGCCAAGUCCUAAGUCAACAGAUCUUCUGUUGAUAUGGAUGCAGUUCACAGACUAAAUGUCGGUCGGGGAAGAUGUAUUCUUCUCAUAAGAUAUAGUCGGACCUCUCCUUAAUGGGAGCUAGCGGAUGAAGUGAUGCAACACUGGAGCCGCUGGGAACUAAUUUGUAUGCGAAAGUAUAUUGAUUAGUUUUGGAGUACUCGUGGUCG; conditions: 30 °C
measured_property: self-splicing fitness (ln)
Give the figure by itself; no unit, no explanation.

# self-splicing fitness (ln) lookup, item `UUGCAGCAAUAUUACGGUGA`
-1.44

Another sequence to check: `CGUUAGCAAUAUUACGGCAG`
-0.122

Next sequence: `AUUCAGCAAUAUUACGAACA`
-0.36

Then this sequence: `UAACAGCAAUAUUACGAUUA`
-0.131

Then this sequence: `CCAGAGCAAUAUUACGUCUU`
-3.89

What do you get for `AUCGAGCAAUAUUACGCUGG` ?
-2.78

// same read-out, input: `UUGUAGCAAUAUUACGAGCU`
-1.88

Next record, please: `AAUCAGCAAUAUUACGCAAG`
-0.971
